- System: NOMO1
- PROCEDURE SUMMARY: cell viability relative to DMSO control; higher = less cytotoxic
- CONDITION CONTEXT: RPMI 5 mM glucose + 10% FBS; 48 h; 46.1 µM
For each record, write down the corresponding cell viability.
Give bare numbers, in %.

// worked examples, cell viability included
## Task Quick one: cell viability of C[C@@H](Cc1cc2c(c(C(N)=O)c1)N(CCCO)CC2)NCCOc1ccccc1OCC(F)(F)F ?
## Result 106

## Task Please do the same for NC[C@H](O)c1ccc(O)c(O)c1 as well.
## Result 78

## Task Moving on to the next molecule: COc1cc(N2CCN(C)CC2)ccc1Nc1nc(N)c(C(=O)c2c(Cl)cccc2Cl)s1
## Result 87.3

I need cell viability for every entry listed below, if you could help.
1. Cc1nnc(C(C)C)n1[C@@H]1C[C@H]2CC[C@@H](C1)N2CC[C@H](NC(=O)C1CCC(F)(F)CC1)c1ccccc1
2. O=c1oc2cc(O)ccc2s1
3. CCc1nc(N)nc(N)c1-c1ccc(Cl)cc1
4. N#CC1(c2cccc(C(=O)Nc3cc(Oc4ccc5nc(NC(=O)C6CC6)sc5n4)ccc3F)c2Cl)CC1
5. Nc1nccc(-c2ccc3noc(-c4ccc(Cl)cc4)c3c2)n1
6. CCN1\C=C(C(O)=O)/C(=O)C2=C1C(=C(N3CCNC(C)C3)C(=C2)F)F (configuration not stated)

## Result
[26.3, 98.3, 89.6, 10.6, 104, 111]

Please state cell viability for every molecule in the list that follows.
1. CCC(=O)O[C@@]1(CC[C@H]2[C@@H]3CCC/4=C/C(=O)CC[C@]4(C)[C@H]3CC[C@]12C)C(=O)CO
2. CCC[C@H](Nc1nc(-c2ccc(NC(=O)NCC)c(OC)c2)ncc1C)c1cccnc1
3. COc1cc(C[C@@H](CO)[C@H](CO)Cc2ccc(O)c(OC)c2)ccc1O
4. CO[C@H]1C[C@@H]2CC[C@@H](C)[C@@](O)(O2)C(=O)C(=O)N2CCCC[C@H]2C(=O)O[C@H]([C@@H](C)C[C@@H]2CC[C@@H](O)[C@H](OC)C2)CC(=O)[C@H](C)/C=C(\C)[C@@H](O)[C@@H](OC)C(=O)[C@H](C)C[C@H](C)/C=C/C=C/C=C/1C
5. CCC(=O)N1CCN(CC1)C2=C(C=C(C=C2)N3C(=O)\C=C/C4=C3C5=CC(=CC=C5N=C4)C6=CN=C7C=CC=CC7=C6)C(F)(F)F
6. NC(=O)c1nnn(Cc2cc(Cl)c(C(=O)c3ccc(Cl)cc3)c(Cl)c2)c1N
7. COc1cc2c(cc1OC)CN(CCc1ccc(NC(=O)c3cccc4c(=O)c5cccc(OC)c5[nH]c34)cc1)CC2
8. O=C(CCCN1CCC(O)(c2ccc(Cl)cc2)CC1)c1ccc(F)cc1

## Result
1: 103; 2: 25.7; 3: 102; 4: 103; 5: 63.7; 6: 103; 7: 14.1; 8: 82.1

Go through the list and state cell viability for each entry.
1. CCN(CC)CCCC(C)Nc1ccnc2cc(Cl)ccc12 (configuration not stated)
2. CC(=O)OCC(=O)[C@@]1(O)CC[C@H]2[C@@H]3CCC/4=C/C(=O)/C=C\[C@]4(C)[C@H]3[C@@H](O)C[C@]12C
3. CC(C)C[C@H](CC(=O)O)C(=O)N[C@@H](Cc1c[nH]c2ccccc12)C(=O)N[C@@H](C)c1ccccc1
4. NC(=O)N1CCC(CC(=O)N2CCC([C@H]3c4ncc(Br)cc4CCc4cc(Cl)cc(Br)c43)CC2)CC1
5. CC(O)(C[S+](=O)([O-])c1ccc(F)cc1)C(=O)Nc1ccc(C#N)c(C(F)(F)F)c1 (configuration not stated)
6. Clc1ccc(CCC(Cn2ccnc2)Sc2c(Cl)cccc2Cl)cc1 (configuration not stated)
7. Cc1ccc(C(=O)Nc2ccc([S+](=O)([O-])O)c3cc([S+](=O)([O-])O)cc([S+](=O)([O-])O)c23)cc1NC(=O)c1cccc(NC(=O)Nc2cccc(C(=O)Nc3cc(C(=O)Nc4ccc([S+](=O)([O-])O)c5cc([S+](=O)([O-])O)cc([S+](=O)([O-])O)c45)ccc3C)c2)c1
8. CN1CCC(CNc2ccc3ncc(-c4cccc(OC(F)(F)F)c4)n3n2)CC1

## Result
[18, 115, 29.5, 54.1, 50.7, 79.8, 62.2, 5.17]

Report cell viability for every entry below.
1. CC[C@H](C)C(=O)O[C@H]1C[C@@H](C)\C=C2\C=C/[C@H](C)[C@H](CC[C@@H]3C[C@@H](O)CC(=O)O3)[C@@H]12
2. C/C=C(\C)C(=O)N[C@@H](c1ccccc1)[C@@H](O)C(=O)O[C@H]1C[C@@]2(O)[C@@H](OC(=O)c3ccccc3)[C@@H]3[C@]4(OC(C)=O)CO[C@@H]4C[C@H](O)[C@@]3(C)C(=O)[C@H](OC(C)=O)C(=C1C)C2(C)C
3. Cc1cnc(Nc2cccc(CN3CCOCC3)c2)nc1Nc1cccc([S+](=O)([O-])NC(C)(C)C)c1
4. CC(C)[C@H](C(=O)Nc1ccc(C(=O)NO)cc1)c1ccccc1

## Result
1: 71.4; 2: 9.52; 3: 85.5; 4: 8.21

Could you report cell viability for every entry in the following list?
1. Cc1nc2ccc(CN(C)c3ccc(C(=O)N[C@@H](CCC(=O)O)C(=O)O)s3)cc2c(=O)[nH]1
2. Clc1ccc(C(c2ccccc2Cl)C(Cl)Cl)cc1 (configuration not stated)
3. O=C(O)c1cccnc1

## Result
1. 73.1
2. 93.2
3. 14.4

----------
- Test system: P12-Ichikawa
- PROCEDURE SUMMARY: cell viability relative to DMSO control; higher = less cytotoxic
- CONDITION CONTEXT: RPMI 5 mM glucose + 10% dialyzed FBS; 48 h; 0.569 µM
RESULT TYPE: cell viability (%)
Numbers only, in %.

Use the examples below as a reference point.
## Task Given the entry Cc1nnc(C(C)C)n1[C@@H]1C[C@H]2CC[C@@H](C1)N2CC[C@H](NC(=O)C1CCC(F)(F)CC1)c1ccccc1 , what cell viability was observed with P12-Ichikawa?
## Result 97.4

## Task Field entry: COc1ccc(/C=C/C(=O)Nc2ccccc2C(=O)O)cc1OC
## Result 98.5

## Task Param item: COc1cc2cc(c1Cl)N(C)C(=O)C[C@H](OC(=O)C(C)C)[C@]1(C)O[C@@H]1[C@H](C)[C@@H]1C[C@@](O)(NC(=O)O1)[C@H](OC)/C=C/C=C(\C)C2
## Result 12.2

Need cell viability for each of these molecules.
1. C#CCC(Cc1cnc2nc(N)nc(N)c2n1)c1ccc(C(=O)N[C@@H](CCC(=O)O)C(=O)O)cc1 (stereo partly specified)
2. O=c1oc2cc(O)ccc2s1
3. COc1cc2c(cc1OC)CN(CCc1ccc(NC(=O)c3cccc4c(=O)c5cccc(OC)c5[nH]c34)cc1)CC2

## Result
1: 20.2; 2: 114; 3: 110

Value sought for every listed molecule: cell viability.
1. CC(C)[C@H](O)C(=O)N[C@@H](C)C(=O)N[C@@H]1C(=O)N(C)CCc2ccccc21
2. CN(C)C(=O)[C@H](O)[C@H](Cc1ccccc1)NC(=O)c1cc2cc(Cl)ccc2[nH]1
3. O=C(NOCC1CC1)c1ccc(F)c(F)c1Nc1ccc(I)cc1Cl
4. CCC(=O)NC[C@H](Cc1ccc(OCCc2nc(-c3ccccc3)oc2C)cc1)N/C(C)=C\C(=O)c1ccc(C(F)(F)F)cc1
5. CC(C)[C@]12O[C@H]1[C@@H]3O[C@@]34[C@@]5(C)CC\C6=C(COC6=O)/[C@@H]5C[C@@H]7O[C@]47[C@@H]2O
6. CCOc1cc(C(=O)Nc2ccc(Cl)c(-c3nc4ccccc4[nH]3)c2)cc(OCC)c1OCC
7. N#Cc1cc(NC(=O)Nc2nnc(-c3ccncc3)s2)ccc1-c1cn[nH]c1

## Result
1. 102
2. 125
3. 110
4. 83.6
5. 9.99
6. 88.3
7. 128

I need cell viability for every entry listed below, if you could help.
1. CCCCN1CCC(CNC(=O)c2c3n(c4ccccc24)CCCO3)CC1
2. CC[C@H]1OC(=O)[C@H](C)[C@@H](O[C@H]2C[C@@](C)(OC)[C@@H](O)[C@H](C)O2)[C@H](C)[C@@H](O[C@@H]2O[C@H](C)C[C@H](N(C)C)[C@H]2O)[C@](C)(O)C[C@@H](C)/C(=N\OCOCCOC)[C@H](C)[C@@H](O)[C@]1(C)O

## Result
1. 112
2. 61.3

----------
- System: SEM cells
- PROCEDURE SUMMARY: cell viability relative to DMSO control; higher = less cytotoxic
- CONDITION CONTEXT: HPLM + 10% dialyzed FBS; 48 h; 15.4 µM
Give measured cell viability for each item. Keep answers brief.
Answers are plain numbers, in %.

Example molecules with recorded cell viability:
## Task Lookup: cell viability / SEM cells / C[C@@H]1CC[C@@]2(CC[C@]3(C)\C(=C/C[C@@H]4[C@@]5(C)C[C@@H](O)[C@H](O)[C@@](C)(CO)[C@@H]5CC[C@@]34C)[C@@H]2[C@H]1C)C(O)=O
## Result 110

## Task Try this molecule too: CCC[C@H](Nc1nc(-c2ccc(NC(=O)NCC)c(OC)c2)ncc1C)c1cccnc1
## Result 13.1

## Task Now the same for Cc1nc(-c2ccc(-c3ccc(C(=O)N4CCc5cc6c(cc54)C4(CCN(C)CC4)CO6)cc3)c(C)c2)no1
## Result 136

## Task // next record CCCC[S+](=N)([O-])CCC(N)C(=O)O (configuration not stated)
## Result 97.5

## Task How about this molecule: COc1cc(N2CCC(N3CCN(C)CC3)CC2)ccc1Nc1ncc(Cl)c(Nc2ccccc2[S+](=O)([O-])C(C)C)n1
## Result 17.5

## Task Also Clc1ccc(C(c2ccccc2Cl)C(Cl)Cl)cc1 (configuration not stated) ?
## Result 109

## Task And then CCCCCN(C)CCC(O)(P(=O)([O-])O)P(=O)(O)O , what is it?
## Result 104

## Task Again, but for CC(=O)OCC(=O)[C@@]1(O)CC[C@H]2[C@@H]3CCC/4=C/C(=O)/C=C\[C@]4(C)[C@H]3[C@@H](O)C[C@]12C
## Result 88

Dear reader, for each entry below, please note its cell viability.
1. COCC(=O)NC/C=C/c1ccc2ncnc(Nc3ccc(Oc4ccc(C)nc4)c(C)c3)c2c1
2. C=C1CCC2[C@](C)(CO)C(O)CC[C@]2(C)C1C/C=C1/C(=O)OCC1O (some centres not stated)

## Result
1: 89.1; 2: 117

Each molecule below has a reported value. Please supply its cell viability.
1. Cc1nnc(C(C)C)n1[C@@H]1C[C@H]2CC[C@@H](C1)N2CC[C@H](NC(=O)C1CCC(F)(F)CC1)c1ccccc1
2. O=C(O)c1cccnc1
3. CCn1c(C(=O)N(C2CC2)C2CC2)cc2c3c(ncn3C)c(Nc3cc(C)n(C)n3)nc21
4. C[C@]12CC[C@H]3[C@@H](CC[C@@]45O[C@@H]4C(O)=C(C#N)C[C@]35C)[C@@H]1CC[C@@H]2O
5. CN1CCN(CC1)C2=CC3=C([NH]C(=N3)C/4=C(\N)C5=C(F)C=CC=C5NC4=O)C=C2

## Result
64.9
9.12
78.8
86.3
17.3

Could you report cell viability for every entry in the following list?
1. COc1cccc(N(C)C(=S)Oc2ccc3c(c2)CCCC3)n1
2. CN(C[C@@H]1COCCO1)[S+]([O-])(=O)NC2=CC3=C(C=C2)\C=C/C4=C(C=C(C=N4)C5=C[N](C)N=C5)C3=O

## Result
1: 82.8; 2: 22.4
